# credit: patent US20180251431A1

Test system: HEK293 cells
Test: HEK293 VLCFA-LPC IC50 determination (13C-labeled C26:0 LPC by UHPLC/MS)
Format: cell-based, human
Conditions: Homo sapiens, HEK293, 48 h, average of one or more replicates; 13C-labeled C26:0 LPC, 48 hours; read-out: Average HEK293 IC50
Property Measured: IC50 (nM)
Just the number in nM, nothing appended.

I looked up O=C(Nc1ccn(-c2ccnc(F)c2)n1)C1(c2ccccc2)CC1(F)F (single isomer, unassigned) [Compound 368] and its IC50 for HEK293 cells was 32

I looked up O=C(Nc1ccn(-c2ncncc2F)n1)C1(c2ccccc2F)CC1 [Compound 361] and its IC50 for HEK293 cells was 150

====

System: ALD patient B-lymphocytes
Test: Reduction in C26:0 LPC in ALD patient B-lymphocytes in vitro
Format: cell-based
Conditions: Homo sapiens, Lymphocyte, Patient Lymphocyte (CALD); half maximal reduction in C26:0 LPC
Property Measured: IC50 (nM)
Just the number in nM, nothing appended.

GET /value?item= O=C(Nc1ccn(-c2ccnc(F)c2)n1)C1(c2ccccc2F)CC1 &field=IC50 returns 15

====

Assay: Metabolic intrinsic clearance in rat hepatocytes
Assay type: in vitro ADME
Settings: Sprague Dawley, cryopreserved hepatocytes in suspension, pH 7.5, 0.5 million cells/mL, incubation for 4 hours
Property Measured: hepatocyte CLint at 1 μM (µL/min/1e6 cells)
Just the number in µL/min/1e6 cells, nothing appended.

GET /value?item= O=C(Nc1ccn(-c2ccnc(F)c2)n1)C1(c2ccccc2F)CC1 &field=hepatocyte CLint at 1 μM returns 23.6

====

So I've got a bunch of compounds here, and I need their IC50 values.
System: HEK293 cells
Assay: HEK293 VLCFA-LPC IC50 determination (13C-labeled C26:0 LPC by UHPLC/MS)
Type: cell-based, human
Conditions: Homo sapiens, HEK293, 48 h, average of one or more replicates; 13C-labeled C26:0 LPC, 48 hours; read-out: Average HEK293 IC50
Just the number in nM, nothing appended.

I looked up Cc1c(-n2ccc(NC(=O)C3(c4ccccc4F)CC3)n2)ccnc1F [Compound 351] and its IC50 for HEK293 cells was 420

I looked up N#Cc1cc(-n2ccc(NC(=O)C3(c4ccccc4F)CC3)n2)ccn1 [Compound 329] and its IC50 for HEK293 cells was 3600

I looked up O=C(Nc1ccn(-c2ccnc(F)c2)n1)C1(c2ccccc2)CC1(Cl)Cl (single isomer, unassigned) [Compound 370] and its IC50 for HEK293 cells was 170

I looked up O=C(Nc1ccn(-c2ncco2)n1)C1(c2ccccc2F)CC1 [Compound 375] and its IC50 for HEK293 cells was 500

I looked up Cc1cncc(-n2ccc(NC(=O)C3(c4ccccc4F)CC3)n2)c1 [Compound 323] and its IC50 for HEK293 cells was 350

I looked up Nc1c(F)cc(-n2ccc(NC(=O)C3(c4ccccc4F)CC3)n2)cc1F [Compound 384] and its IC50 for HEK293 cells was 980

I looked up COc1ccc(-n2ccc(NC(=O)C3(c4ccccc4F)CC3)n2)cn1 [Compound 319] and its IC50 for HEK293 cells was 58

====

System: HEK293 cells
Experiment: HEK293 VLCFA-LPC IC50 determination (13C-labeled C26:0 LPC by UHPLC/MS)
Assay type: cell-based, human
Settings: Homo sapiens, HEK293, 48 h, average of one or more replicates; 13C-labeled C26:0 LPC, 48 hours; read-out: Average HEK293 IC50
Property Measured: IC50

GET /value?item= Cc1cc(-n2ccc(NC(=O)C3(c4ccccc4F)CC3)n2)cc(C#N)n1 &field=IC50 returns > 5 µM

GET /value?item= COc1cc(-n2ccc(NC(=O)C3(c4ccccc4F)CC3)n2)ncn1 &field=IC50 returns > 5 µM

GET /value?item= Cc1cc(-n2ccc(NC(=O)C3(c4ccccc4F)CC3)n2)nc(C)n1 &field=IC50 returns > 5 µM

====

System: HEK293 cells
Assay: HEK293 VLCFA-LPC IC50 determination (13C-labeled C26:0 LPC by UHPLC/MS)
Format: cell-based, human
Conditions: Homo sapiens, HEK293, 48 h, average of one or more replicates; 13C-labeled C26:0 LPC, 48 hours; read-out: Average HEK293 IC50
So I've got a bunch of molecules here, and I need their log10 IC50 values.
Record value = log10 of IC50 given in nM.

GET /value?item= O=C(Nc1ccn(-c2cnc(Cl)c(Cl)c2)n1)C1(c2ccccc2F)CC1 &field=log10 IC50 returns 2.08

GET /value?item= O=C(Nc1ccn(-c2ccncc2)n1)C1(c2ccccc2)CC1(F)F (single isomer, unassigned) &field=log10 IC50 returns 2.51

GET /value?item= Nc1cc(-n2ccc(NC(=O)C3(c4ccccc4F)CC3)n2)ccc1F &field=log10 IC50 returns 3.15

GET /value?item= Cc1cc(-n2ccc(NC(=O)C3(c4ccccc4F)CC3)n2)sn1 &field=log10 IC50 returns 3.36

GET /value?item= O=C(Nc1ccn(-c2cncc(Cl)c2)n1)C1(c2ccccc2F)CC1 &field=log10 IC50 returns 1.86

GET /value?item= Cc1cn(-c2ccccc2)nc1NC(=O)C1(c2cccc(F)c2)CCC1 &field=log10 IC50 returns 3.57

GET /value?item= O=C(Nc1ccn(-c2ccncc2Cl)n1)C1(c2ccccc2F)CC1 &field=log10 IC50 returns 2.98

====

Tested on: HEK293 cells
Experiment: HEK293 VLCFA-LPC IC50 determination (13C-labeled C26:0 LPC by UHPLC/MS)
Assay type: cell-based, human
Settings: Homo sapiens, HEK293, 48 h, average of one or more replicates; 13C-labeled C26:0 LPC, 48 hours; read-out: Average HEK293 IC50
pIC50: −log10 of the molar value.
Property Measured: pIC50

GET /value?item= CC(C)(O)c1ncc(-n2ccc(NC(=O)C3(c4ccccc4F)CC3)n2)cn1 [Compound 382] &field=pIC50 returns < 5.30

GET /value?item= COc1ncc(-n2ccc(NC(=O)C3(c4ccccc4F)CC3)n2)cn1 [Compound 338] &field=pIC50 returns < 5.30

GET /value?item= O=C(Nc1ccn(-c2cncc(C(F)(F)F)c2)n1)C1(c2ccccc2F)CC1 [Compound 316] &field=pIC50 returns < 5.30

====

So I've got a bunch of molecules here, and I need their IC50 values.
System: HEK293 cells
Assay: HEK293 VLCFA-LPC IC50 determination (13C-labeled C26:0 LPC by UHPLC/MS)
Assay type: cell-based, human
Details: Homo sapiens, HEK293, 48 h, average of one or more replicates; 13C-labeled C26:0 LPC, 48 hours; read-out: Average HEK293 IC50

I looked up O=C(Nc1ccn(-c2cc(F)c(O)c(F)c2)n1)C1(c2ccccc2F)CC1 and its IC50 for HEK293 cells was > 5 µM

I looked up CC(C)(O)c1ncc(-n2ccc(NC(=O)C3(c4ccccc4F)CC3)n2)cc1F and its IC50 for HEK293 cells was > 5 µM

I looked up O=C(Nc1ccn(-c2ccnc(C(F)(F)F)c2)n1)C1(c2ccccc2F)CC1 and its IC50 for HEK293 cells was > 5 µM

I looked up Cc1cc(-n2ccc(NC(=O)C3(c4ccccc4F)CC3)n2)c(C)cn1 and its IC50 for HEK293 cells was > 5 µM

I looked up Cc1nccc(-n2ccc(NC(=O)C3(c4ccccc4F)CC3)n2)n1 and its IC50 for HEK293 cells was > 5 µM

I looked up O=C(Nc1ccn(-c2ccc(C(F)(F)F)nc2)n1)C1(c2ccccc2F)CC1 and its IC50 for HEK293 cells was > 5 µM

I looked up CN(C(=O)C1(c2ccccc2F)CC1)c1ccn(-c2ccnc(F)c2)n1 and its IC50 for HEK293 cells was > 5 µM

I looked up COc1cc(-n2ccc(NC(=O)C3(c4ccccc4F)CC3)n2)nc(C)n1 and its IC50 for HEK293 cells was > 5 µM
